Data provenance is the supplement of paper PMC12350171.

Test system: Shigella flexneri
ASSAY_PROCEDURE: growth AUC normalised to DMSO control (fraction of control); higher = less growth inhibition, active = hit call of the paper
TEST_CONTEXT: 20 µM
Structures can show the parent of a compound that is named as a salt.
Your response should consist of one outcome taken from T for active, F for inactive

Hey, what did the test say about Cc1ccc(-c2cc(C(F)(F)F)nn2-c2ccc(S(N)(=O)=O)cc2)cc1 ?
F

Next:
Hey, what did the test say about CC(C)Cn1cnc2c(N)nc3ccccc3c21 ?
F

Hey, what did the test say about COc1cc(Cc2cnc(N)nc2N)cc(OC)c1OC ?
T

Hey, what did the test say about CC(C(O)c1ccc(O)cc1)N1CCC(Cc2ccccc2)CC1 (stereo unspecified) [Ifenprodil tartrate] ?
F

Hey, what did the test say about Clc1ccc(Nc2nnc(Cc3ccncc3)c3ccccc23)cc1 ?
F

Hey, what did the test say about CC(C)(C)NC[C@H](O)COc1ccccc1C1CCCC1 [Penbutolol sulfate] ?
F

Hey, what did the test say about NS(=O)(=O)c1cc2c(cc1Cl)N=C(CSCc1ccccc1)NS2(=O)=O [Benzthiazide] ?
F

Hey, what did the test say about CC(=O)S[C@@H]1CC2=CC(=O)CC[C@]2(C)[C@H]2CC[C@@]3(C)[C@@H](CC[C@@]34CCC(=O)O4)[C@H]12 ?
F

Hey, what did the test say about CCCOc1ccc(C(=O)OCCN(CC)CC)cc1N [Proparacaine hydrochloride] ?
F

Hey, what did the test say about CC(=O)[C@@]1(O)CC[C@H]2[C@@H]3C[C@H](C)C4=CC(=O)C=C[C@]4(C)[C@@]3(F)[C@@H](O)C[C@@]21C ?
F

---

Item-by-item account of growth AUC normalised to DMSO control
Tested on: S. enterica typhimurium WT;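 also: active when median AUC fell below 0.1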
ASSAY_PROCEDURE: growth AUC normalised to DMSO control (median) (fraction of control); higher = less growth inhibition, active = hit call of the paper
TEST_CONTEXT: 20 µM
Structures can show the parent of a compound that is named as a salt.
Note: the reply should be a number with no unit written.

The following compounds have reported results that may help.
Requested read-out growth AUC normalised to DMSO control, target or system S. enterica typhimurium WT, entry OCCN1CCN(CCCN2c3ccccc3Sc3ccc(Cl)cc32)CC1 [Perphenazine];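 also: active when median AUC fell below 0.1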
1

Requested read-out growth AUC normalised to DMSO control, target or system S. enterica typhimurium WT, entry CC(=O)OC(C)OC(=O)C(C)c1ccc(-c2ccccc2)c(F)c1 (centres undefined) [Flurbiprofen axetil];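 also: active when median AUC fell below 0.1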
1.01

Requested read-out growth AUC normalised to DMSO control, target or system S. enterica typhimurium WT, entry Brc1c(NC2=NCCN2)ccc2nccnc12 [Brimonidine L-tartrate];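 also: active when median AUC fell below 0.1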
0.999

Next:
Requested read-out growth AUC normalised to DMSO control, target or system S. enterica typhimurium WT, entry CC(Oc1c(Cl)cccc1Cl)C1=NCCN1 (centres undefined) [Lofexidine];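 also: active when median AUC fell below 0.1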
1.02

Requested read-out growth AUC normalised to DMSO control, target or system S. enterica typhimurium WT, entry CC[C@H](C)[C@H](NC(=O)[C@H](Cc1ccc(O)cc1)NC(=O)[C@@H](NC(=O)[C@H](CCCN=C(N)N)NC(=O)[C@@H](N)CC(=O)O)C(C)C)C(=O)N[C@@H](Cc1cnc[nH]1)C(=O)N1CCC[C@H]1C(=O)N[C@@H](Cc1ccccc1)C(=O)O [Angiotensin II (Human) Trifluoroacetic acid salt];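 also: active when median AUC fell below 0.1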
0.997

Requested read-out growth AUC normalised to DMSO control, target or system S. enterica typhimurium WT, entry Nc1ccc(S(N)(=O)=O)cc1 [Sulfanilamide];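 also: active when median AUC fell below 0.1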
0.993

Requested read-out growth AUC normalised to DMSO control, target or system S. enterica typhimurium WT, entry Nc1ccn([C@@H]2O[C@H](CO)[C@@H](O)[C@@H]2O)c(=O)n1 [Cytarabine];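 also: active when median AUC fell below 0.1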
0.998

Requested read-out growth AUC normalised to DMSO control, target or system S. enterica typhimurium WT, entry CC(C[N+](C)(C)C)OC(N)=O (centres undefined) [Bethanechol chloride];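 also: active when median AUC fell below 0.1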
1

Requested read-out growth AUC normalised to DMSO control, target or system S. enterica typhimurium WT, entry CN(C)C(=O)COC(=O)Cc1ccc(OC(=O)c2ccc(NC(=N)N)cc2)cc1 [Camostat mesylate];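 also: active when median AUC fell below 0.1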
0.997

Requested read-out growth AUC normalised to DMSO control, target or system S. enterica typhimurium WT, entry CCN(CC)C(=O)C1(c2ccccc2)CC1CN (centres undefined) [Milnacipran hydrochloride];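 also: active when median AUC fell below 0.1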
0.999

Requested read-out growth AUC normalised to DMSO control, target or system S. enterica typhimurium WT, entry S=c1[nH]cnc2nc[nH]c12 [Mercaptopurine];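 also: active when median AUC fell below 0.1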
1

Requested read-out growth AUC normalised to DMSO control, target or system S. enterica typhimurium WT, entry Oc1ccc(OCc2ccccc2)cc1 [Monobenzone];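 also: active when median AUC fell below 0.1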
0.996

Requested read-out growth AUC normalised to DMSO control, target or system S. enterica typhimurium WT, entry C=CCOc1ccccc1OCC(O)CNC(C)C (centres undefined) [Oxprenolol hydrochloride];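 also: active when median AUC fell below 0.1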
0.997

Requested read-out growth AUC normalised to DMSO control, target or system S. enterica typhimurium WT, entry COc1ccc(C2CNC(=O)C2)cc1OC1CCCC1 (centres undefined) [Rolipram];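 also: active when median AUC fell below 0.1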
1.01

Requested read-out growth AUC normalised to DMSO control, target or system S. enterica typhimurium WT, entry C#C[C@]1(O)CC[C@H]2[C@@H]3CCc4cc(OC)ccc4[C@H]3CC[C@@]21C [Mestranol];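 also: active when median AUC fell below 0.1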
0.999

Requested read-out growth AUC normalised to DMSO control, target or system S. enterica typhimurium WT, entry COCCCC/C(=N\OCCN)c1ccc(C(F)(F)F)cc1 [Fluvoxamine maleate];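 also: active when median AUC fell below 0.1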
0.991

Requested read-out growth AUC normalised to DMSO control, target or system S. enterica typhimurium WT, entry NC(=O)N/N=C/c1ccc([N+](=O)[O-])o1 [Nitrofural];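 also: active when median AUC fell below 0.1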
0.902

Requested read-out growth AUC normalised to DMSO control, target or system S. enterica typhimurium WT, entry O=C(Cn1cnnn1)N[C@@H]1C(=O)N2C(C(=O)O)=C(CSc3nncs3)CS[C@H]12 [Ceftezole];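 also: active when median AUC fell below 0.1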
0.0119

Requested read-out growth AUC normalised to DMSO control, target or system S. enterica typhimurium WT, entry O=C(NCC1CCCCN1)c1cc(OCC(F)(F)F)ccc1OCC(F)(F)F (centres undefined) [Flecainide acetate];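 also: active when median AUC fell below 0.1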
1
